src = patent US8445674B2

# TESTED TARGET: human chemokine receptor 2 isoform B (Homo sapiens, UniProt P41597)
# Construct: host or cells: CHOK1-CCR2B-A5 cells (CHO-K1)
# Sequence (P41597 1-360 isoform P41597-2): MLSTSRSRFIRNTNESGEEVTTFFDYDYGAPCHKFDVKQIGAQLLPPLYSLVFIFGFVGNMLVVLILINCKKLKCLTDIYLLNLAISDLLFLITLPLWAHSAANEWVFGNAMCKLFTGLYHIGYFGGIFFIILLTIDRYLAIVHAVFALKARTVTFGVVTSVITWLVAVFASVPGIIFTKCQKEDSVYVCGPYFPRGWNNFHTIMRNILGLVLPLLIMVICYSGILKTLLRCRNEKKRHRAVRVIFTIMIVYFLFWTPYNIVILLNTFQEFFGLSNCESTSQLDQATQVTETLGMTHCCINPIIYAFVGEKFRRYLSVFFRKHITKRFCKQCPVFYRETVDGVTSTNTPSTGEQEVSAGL
# PROCEDURE TEXT: Calcium mobilization assay (FLIPR, antagonist activity against MCP-1)
# Type: cell-based
# EXPERIMENTAL CONDITIONS: Ca mobilisation assay, CHOK1-CCR2B-A5 cells, inhibition of calcium increase induced by 20 nM MCP-1
pIC50: −log10 of the molar value.
Binary call on pIC50: T from 7 upward, F beneath that.

INSERT INTO assay_data (molecule, tested_target, class_label) VALUES
  ('O=C1NCC2(CCN(C(=O)CCN3CCN(C(=O)/C=C/c4ccc(Cl)c(Cl)c4)CCC3=O)CC2)O1 [Example 90]', 'human chemokine receptor 2 isoform B (Homo sapiens, UniProt P41597)', 'F'),
  ('C[C@H]1C(=O)N(CCCC(=O)N2CC[C@](C)(CO)[C@H](O)C2)CCN1C(=O)Nc1cccc(Cl)c1 (racemic) [Example 114]', 'human chemokine receptor 2 isoform B (Homo sapiens, UniProt P41597)', 'T'),
  ('C[C@H]1C(=O)N([C@H](CO)CCC(=O)N2CCC3(CC3)[C@H](O)C2)CCN1C(=O)N(C)c1ccc(OC(F)(F)F)c(Cl)c1 [Example 57]', 'human chemokine receptor 2 isoform B (Homo sapiens, UniProt P41597)', 'F'),
  ('O=C(/C=C/c1ccc(Cl)c(Cl)c1)N1CCC(=O)N(CCC(=O)N2CCC(O)(c3ccccn3)CC2)CC1 [Example 76]', 'human chemokine receptor 2 isoform B (Homo sapiens, UniProt P41597)', 'F'),
  ('C[C@H]1C(=O)N(CCC(F)C(=O)N2CCC3(CC3)[C@H](O)C2)CCN1C(=O)Nc1ccc(C(F)(F)F)c(Cl)c1 (single isomer, unassigned) [Example 137]', 'human chemokine receptor 2 isoform B (Homo sapiens, UniProt P41597)', 'T'),
  ('C[C@H]1C(=O)N(CC(O)CC(=O)N2CCC3(CC3)[C@H](O)C2)CCN1C(=O)Nc1ccc(Cl)c(Cl)c1 (some centres unmarked) [Example 40]', 'human chemokine receptor 2 isoform B (Homo sapiens, UniProt P41597)', 'T'),
  ('COC(=O)C(CC(=O)N(C)C)N1CCN(C(=O)/C=C/c2ccc(Cl)c(Cl)c2)CCC1=O (racemic) [Example 8]', 'human chemokine receptor 2 isoform B (Homo sapiens, UniProt P41597)', 'F'),
  ('CC1(CO)CCCN1C(=O)CCN1CCN(C(=O)/C=C/c2ccc(Cl)c(Cl)c2)CCC1=O (racemic) [Example 81]', 'human chemokine receptor 2 isoform B (Homo sapiens, UniProt P41597)', 'F'),
  ('C[C@H]1C(=O)N(CC(O)CC(=O)N2CCC3(CC3)[C@H](O)C2)CCN1C(=O)Nc1ccc(C(F)(F)F)c(Cl)c1 (some centres unmarked) [Example 41]', 'human chemokine receptor 2 isoform B (Homo sapiens, UniProt P41597)', 'T'),
  ('C[C@H]1C(=O)N(C[C@@H](O)CC(=O)N2CCC3(CC3)[C@H](O)C2)CCN1C(=O)Nc1ccc(OC(F)(F)F)c(Cl)c1 [Example 45]', 'human chemokine receptor 2 isoform B (Homo sapiens, UniProt P41597)', 'T'),
  ('O=C1CCN(C(=O)Nc2cccc(Cl)c2)CCN1CCCC(=O)N1CCC2(CC2)[C@H](O)C1 [Example 116]', 'human chemokine receptor 2 isoform B (Homo sapiens, UniProt P41597)', 'F'),
  ('COC(=O)C(CC(=O)N(C)C)N1CCN(C(=O)/C=C/c2cccc(Cl)c2)CCC1=O (racemic) [Example 12]', 'human chemokine receptor 2 isoform B (Homo sapiens, UniProt P41597)', 'F'),
  ('C[C@H]1C(=O)N(C[C@H](O)CC(=O)N2CCC3(CC3)[C@H](O)C2)CCN1C(=O)Nc1ccc(C(F)(F)F)c(C(F)(F)F)c1 [Example 49]', 'human chemokine receptor 2 isoform B (Homo sapiens, UniProt P41597)', 'T');
